STUDY TARGET: PI3K delta (Homo sapiens, UniProt O00329)
Construct: for the full-length p110-d subunit are generated and fused by overlapping PCR; His tag (C); made in house; host or cells: baculovirus BV1060; Tn5 (Trichoplusia ni) or TiniPro insect cells
Sequence (O00329 with tags, fused parts or gaps limits assumed, species assumed): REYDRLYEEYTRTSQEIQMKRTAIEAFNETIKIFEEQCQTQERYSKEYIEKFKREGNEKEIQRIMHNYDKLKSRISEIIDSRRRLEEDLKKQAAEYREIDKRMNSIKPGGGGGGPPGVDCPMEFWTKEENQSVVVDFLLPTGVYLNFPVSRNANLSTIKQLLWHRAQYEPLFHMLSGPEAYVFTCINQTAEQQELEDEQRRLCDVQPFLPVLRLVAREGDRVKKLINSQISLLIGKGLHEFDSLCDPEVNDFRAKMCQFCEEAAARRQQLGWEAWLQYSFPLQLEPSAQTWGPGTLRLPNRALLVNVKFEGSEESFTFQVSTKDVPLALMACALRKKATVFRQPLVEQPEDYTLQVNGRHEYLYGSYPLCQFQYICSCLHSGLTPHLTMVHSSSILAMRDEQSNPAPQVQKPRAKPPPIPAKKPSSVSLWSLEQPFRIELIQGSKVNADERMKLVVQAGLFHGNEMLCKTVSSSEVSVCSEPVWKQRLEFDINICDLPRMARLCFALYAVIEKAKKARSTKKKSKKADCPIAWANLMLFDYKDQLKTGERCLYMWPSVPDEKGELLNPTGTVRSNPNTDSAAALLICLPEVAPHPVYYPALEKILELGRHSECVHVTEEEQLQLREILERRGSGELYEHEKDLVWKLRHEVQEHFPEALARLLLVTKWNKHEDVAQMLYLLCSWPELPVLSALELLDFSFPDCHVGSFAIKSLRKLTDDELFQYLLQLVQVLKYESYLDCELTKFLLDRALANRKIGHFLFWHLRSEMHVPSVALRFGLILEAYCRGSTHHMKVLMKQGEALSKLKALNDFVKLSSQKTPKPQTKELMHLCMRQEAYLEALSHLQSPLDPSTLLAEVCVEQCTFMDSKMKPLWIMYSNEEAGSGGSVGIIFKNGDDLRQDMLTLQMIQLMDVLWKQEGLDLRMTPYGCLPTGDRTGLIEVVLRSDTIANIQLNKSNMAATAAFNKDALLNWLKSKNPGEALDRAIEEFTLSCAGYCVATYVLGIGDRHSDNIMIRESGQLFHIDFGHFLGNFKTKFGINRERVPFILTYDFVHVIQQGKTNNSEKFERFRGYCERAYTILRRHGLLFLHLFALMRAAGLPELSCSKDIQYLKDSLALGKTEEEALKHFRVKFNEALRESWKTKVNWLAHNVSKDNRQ
PROTOCOL DETAILS: Enzymatic PI3K delta isoform inhibition (lipid kinase activity, Kinase-Glo)
Type: biochemical
CONDITION NOTES: enzymatic assay
Procedure: The components of the assay are added per well as follows: IC50 is determined by a four parameter curve fitting routine that comes along with “excel fit”. Yet alternatively, for an ATP depletion assay, compounds of the formula I to be tested are dissolved in DMSO and directly distributed into a white 384-well plate at 0.5 μl per well. […] The stopped reaction is incubated for 5 minutes and the remaining ATP is then detected via luminescence. IC50 values are then determined.
pIC50: −log10 of the molar value.
QUANTITY NAME: pIC50

- COc1ccc(-c2ccc3ncnc(-c4cccc(C(=O)N5CC(C)NC(C)C5)c4)c3c2)cn1 (stereo not drawn) [Example 90]: 8.24
- COc1ccc(-c2ccc3ncnc(-c4cccc(C(=O)N5CCN(C)CC5)c4)c3c2)cc1C(F)(F)F [Example 20]: 7.62
- COc1ccc(-c2ccc3ncnc(-c4cc(C(=O)N5CCN(C(C)=O)CC5)cc(C(F)(F)F)c4)c3c2)cn1 [Example 101]: 7.80
- CNc1ncc(-c2ccc3ncnc(-c4cccc(C(=O)N5CCN(C)CC5)c4)c3c2)cc1C [Example 40]: 8.52
- COc1ncc(-c2ccc3ncnc(-c4cc(F)cc(C(=O)N5CCN(C(C)=O)CC5)c4)c3c2)cn1 [Example 111]: 8.00
- COc1ncc(-c2ccc3ncnc(-c4ccnc(C(=O)N5CCN(C(C)=O)CC5)c4)c3c2)cc1C#N [Example 113]: 7.74
- COc1ccc(-c2ccc3ncnc(-c4ccc(C)c(C(=O)N5CCN(C(C)C)CC5)c4)c3c2)cn1 [Example 116]: 7.85
- COc1ccc(-c2ccc3ncnc(-c4cncc(C(=O)N5CCOC(C)(C)C5)c4)c3c2)cn1 [Example 67]: 8.15
- COc1ncc(-c2ccc3ncnc(-c4cncc(C(=O)N5CCN(C)CC5)c4)c3c2)cn1 [Example 59]: 7.50
- COc1cc(C(=O)N2CCN(C(C)=O)CC2)cc(-c2ncnc3ccc(-c4ccc(OC)nc4)cc23)c1 [Example 106]: 8.30
- COc1ccc(-c2ccc3ncnc(-c4cncc(C(=O)N5CCN(C)C(C)(C)C5)c4)c3c2)cn1 [Example 78]: 8.35
- COc1ncc(-c2ccc3ncnc(-c4cncc(C(=O)N5CCN(C(C)=O)CC5)c4)c3c2)cc1F [Example 51]: 8.46
- COc1ccc(-c2ccc3ncnc(-c4cc(C)cc(C(=O)N5CCN(C(C)=O)CC5)c4)c3c2)cn1 [Example 108]: 8.15
- COc1ncc(-c2ccc3ncnc(-c4cncc(C(=O)N5CCOCC5)c4)c3c2)cc1C#N [Example 69]: 8.10
- COc1ncc(-c2ccc3ncnc(-c4cccc(C(=O)N5CCN(C)C(C)(C)C5)c4)c3c2)cn1 [Example 26]: 7.75
- COc1ccc(-c2ccc3ncnc(-c4cccc(C(=O)N5CCN(C)C[C@@H]5C)c4)c3c2)cn1 [Example 99]: 8.35
- COc1ncc(-c2ccc3ncnc(-c4cncc(C(=O)N5CCS(=O)(=O)CC5)c4)c3c2)cc1C#N [Example 71]: 8.10
- CN1CCN(C(=O)c2cccc(-c3ncnc4ccc(-c5cc(NS(C)(=O)=O)cc(C(F)(F)F)c5)cc34)c2)CC1 [Example 47]: 7.57
- COc1ccc(-c2ccc3ncnc(-c4cccc(C(=O)N5CCN(C)C(C)(C)C5)c4)c3c2)cn1 [Example 89]: 8.40
- Cc1ccc(-c2ccc3ncnc(-c4cccc(C(=O)N5CCN(C)CC5)c4)c3c2)cc1S(C)(=O)=O [Example 43]: 7.96
- CN1CCN(C(=O)c2cccc(-c3ncnc4ccc(-c5ccc(OC(F)F)nc5)cc34)c2)CC1 [Example 13]: 7.47
- COc1ccc(-c2ccc3ncnc(-c4cccc(C(=O)N5CCN(C)CC5)c4)c3c2)cc1C#N [Example 45]: 7.44
- CC1(C)CN(C(=O)c2cccc(-c3ncnc4ccc(-c5ccc(N)nc5)cc34)c2)CCO1 [Example 32]: 8.15
- COc1ncc(-c2ccc3ncnc(-c4cccc(C(=O)N5CCN[C@H](C)C5)c4)c3c2)cc1C#N [Example 34]: 7.65
- COc1ncc(-c2ccc3ncnc(-c4cncc(C(=O)N5CCN(C(C)=O)CC5)c4)c3c2)cc1C#N [Example 53]: 8.15
- COc1ncc(-c2ccc3ncnc(-c4cncc(C(=O)N5CCOCC5)c4)c3c2)cn1 [Example 70]: 7.52
- COc1ccc(-c2ccc3ncnc(-c4cccc(C(=O)N5CCN(C)CC5)c4)c3c2)cc1C(=O)N(C)C [Example 49]: 7.45
- COc1ncc(-c2ccc3ncnc(-c4cncc(C(=O)N5CCOCC5)c4)c3c2)cc1C(F)(F)F [Example 68]: 8.52
- COc1ccc(-c2ccc3ncnc(-c4cccc(C(=O)N5CCNC[C@@H]5C)c4)c3c2)cn1 [Example 98]: 8.46

All values here come from patent US20140249139A1.
